# Test system: 874868-142-R-J2-PDC complex spheroids, growth % test/control;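 further: spheroids exposed to the compounds for 7 days; 100% = DMSO vehicle control viability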
# EXPERIMENT: Anticancer human tumor 874868-142-R-J2-PDC patient-derived head and neck squamous carcinoma cell line growth inhibition [CLK]
# EXPERIMENTAL CONTEXT: second compound 0.316 µM; first compound 0.00949 µM; hits give low values
# Text: A high-throughput screen of multi-cell type tumor spheroids was designed to identify active combinations of […] and targeted small molecules. Complex spheroids include a stromal component modeled by human endothelial cells (HUVEC) and fibroblasts modeled by human mesenchymal stem cells (MSCs). […] Compounds. […] If the clinical Cmax for an agent had not been determined, the highest concentration tested was 10 microM. […]

# COMPOUND, ASSAYED TARGET, viability, T/C (%)
records = [
    ("C=CC(=O)Nc1cc(Nc2nccc(-c3cn(C)c4ccccc34)n2)c(OC)cc1N(C)CCN(C)C + CNC(=O)c1ccc(Nc2nc(OC3CCCC3)c3c(-c4ccc5nc(C)oc5c4)c[nH]c3n2)c(OC)c1", "874868-142-R-J2-PDC complex spheroids, growth % test/control", 48),
    ("CC(C)CC(NC(=O)C(Cc1ccccc1)NC(=O)c1cnccn1)B(O)O (stereo not drawn) + CN1CCN(c2cc(C(=O)Nc3cc4cc(-c5cnn(C)c5)ccc4cn3)ccn2)CC1", "874868-142-R-J2-PDC complex spheroids, growth % test/control", 0.46),
    ("C=CC(=O)Nc1cc(Nc2nccc(-c3cn(C)c4ccccc34)n2)c(OC)cc1N(C)CCN(C)C + CN1CCN(c2cc(C(=O)Nc3cc4cc(-c5cnn(C)c5)ccc4cn3)ccn2)CC1", "874868-142-R-J2-PDC complex spheroids, growth % test/control", 19.7),
]
